target: Tyrosine-protein kinase Fer (Homo sapiens) (UniProt P16591); settings: at 1 µM
Sequence (P16591 whole entry, looked up): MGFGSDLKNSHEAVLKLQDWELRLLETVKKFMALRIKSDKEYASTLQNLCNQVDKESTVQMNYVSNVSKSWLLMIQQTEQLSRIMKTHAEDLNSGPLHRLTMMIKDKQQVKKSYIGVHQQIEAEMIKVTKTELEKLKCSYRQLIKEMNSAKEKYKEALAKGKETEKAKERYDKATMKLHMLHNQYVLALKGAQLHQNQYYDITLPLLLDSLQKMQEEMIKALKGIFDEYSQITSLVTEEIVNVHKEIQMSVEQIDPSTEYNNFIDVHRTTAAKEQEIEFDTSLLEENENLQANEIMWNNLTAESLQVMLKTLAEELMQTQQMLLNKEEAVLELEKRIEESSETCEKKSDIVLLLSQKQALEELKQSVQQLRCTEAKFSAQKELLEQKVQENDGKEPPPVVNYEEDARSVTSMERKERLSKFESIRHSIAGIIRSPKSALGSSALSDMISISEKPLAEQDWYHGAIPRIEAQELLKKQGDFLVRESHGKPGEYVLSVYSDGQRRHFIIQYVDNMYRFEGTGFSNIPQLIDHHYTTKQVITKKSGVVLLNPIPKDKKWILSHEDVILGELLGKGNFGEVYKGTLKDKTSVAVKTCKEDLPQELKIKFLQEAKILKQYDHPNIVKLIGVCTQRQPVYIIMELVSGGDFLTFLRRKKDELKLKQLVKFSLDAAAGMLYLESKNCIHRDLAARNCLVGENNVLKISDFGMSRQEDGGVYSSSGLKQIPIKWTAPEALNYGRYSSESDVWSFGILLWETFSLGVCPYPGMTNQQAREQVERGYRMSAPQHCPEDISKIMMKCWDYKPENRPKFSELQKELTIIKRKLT
Description: GSK_PKIS: FER mean inhibition at 1 uM [Nanosyn]
measuredMetric: inhibition (%)
Respond with the bare value in %.

Solved entries (count: 2):
[[record]]
smilesdata = "O=S(=O)(CCOCc1ccc(-c2ccc3ncnc(Nc4ccc(OCc5cccc(F)c5)c(Cl)c4)c3c2)o1)c1ccccc1"
valueobserved = -0.81

[[record]]
smilesdata = "COc1ccc2ncnc(Nc3ccc(OCc4ccccc4)cc3)c2c1"
valueobserved = 4.76


Turning to the following compound.
Documented inhibition of `O=C1Nc2ccc(-c3cccnc3)cc2C1=Cc1cc(Br)c(O)c(Br)c1` : 9.05

----------
system: Tyrosine-protein kinase ABL1 (Homo sapiens), P00519 [H396P]; details: at 0.1 µM
measuredMetric: inhibition
Your answer should be a number followed by the unit of measure.

Look over these answered cases.
[[record]]
smilesdata = "COc1cc(Nc2nccc(-c3cnn4ncccc34)n2)cc(OC)c1"
valueobserved = "11.9%"

[[record]]
smilesdata = "Cc1cc(Cl)cc2c1NC(=O)C2=NNc1ccc(S(N)(=O)=O)cc1"
valueobserved = "2.97%"

[[record]]
smilesdata = "CN(C)C(=O)O[C@H]1CN[C@H](C#Cc2cc3ncnc(Nc4ccc(OCc5cccc(F)c5)c(Cl)c4)c3s2)C1"
valueobserved = "2.06%"

[[record]]
smilesdata = "COc1cc2ncnc(Nc3ccc(C)c(O)c3)c2cc1OC"
valueobserved = "48.1%"

[[record]]
smilesdata = "COc1ccc(-c2nn3ncccc3c2-c2ccnc(Nc3cccc(C(F)(F)F)c3)n2)cc1"
valueobserved = "3.97%"


Param item: `c1ccc(Cc2nc3ccc(Nc4ncnc5ccccc45)cc3[nH]2)cc1` ; param system: Tyrosine-protein kinase ABL1 (Homo sapiens), P00519 [H396P]; output inhibition: 1.27%

Entry `O=C(Nc1ccc(Oc2ccc3[nH]c(NC(=O)c4ccco4)nc3c2)cc1)Nc1cc(C(F)(F)F)ccc1F` , Tyrosine-protein kinase ABL1 (Homo sapiens), P00519 [H396P] data, inhibition value: 60.1%

// compound `c1ccc(Nc2ncc(-c3ccccc3)o2)cc1` , assay Tyrosine-protein kinase ABL1 (Homo sapiens), P00519 [H396P], inhibition value: 6.74%

Form: item `COc1cccc(-n2nc(C)c3c(N/N=C(\C)c4ccncc4)ncnc32)c1` ; test system Tyrosine-protein kinase ABL1 (Homo sapiens), P00519 [H396P]; inhibition: 0.51%

Record `O=C1Nc2ccc(-c3cccnc3)cc2C1=Cc1cc(Br)c(O)c(Br)c1` ; system Tyrosine-protein kinase ABL1 (Homo sapiens), P00519 [H396P]; inhibition = 3.44%

Bench note, Tyrosine-protein kinase ABL1 (Homo sapiens), P00519 [H396P]: entry `COc1cc2ncn(-c3cc(OCc4ccccc4S(C)(=O)=O)c(C#N)s3)c2cc1OC` , its inhibition = 12.2%

Measured inhibition for this entry `N#Cc1cccc(Nc2nccc(-c3cnn4ncccc34)n2)c1` on Tyrosine-protein kinase ABL1 (Homo sapiens), P00519 [H396P]: 13.6%

The compound `CS(=O)(=O)Nc1cccc(-c2ccc3c(NC(=O)C4CC4)n[nH]c3c2)c1` , when measured on Tyrosine-protein kinase ABL1 (Homo sapiens), P00519 [H396P], yielded inhibition of 2.46%

I looked up `CS(=O)(=O)CCNCc1nc(-c2ccc3ncnc(Nc4ccc(OCc5cccc(C(F)(F)F)c5)cc4)c3c2)cs1` and its inhibition for Tyrosine-protein kinase ABL1 (Homo sapiens), P00519 [H396P] was 2.03%

Readout inhibition for `COc1cccc(-n2ncc3c(N/N=C/c4ccc(C)cc4)ncnc32)c1` , test system Tyrosine-protein kinase ABL1 (Homo sapiens), P00519 [H396P], was 28.1%

----------
Reported values of inhibition for individual entries
molecular target: Receptor-type tyrosine-protein kinase FLT3 (Homo sapiens); conditions: at 0.1 µM;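 also: mean inhibition value from the GSK PKIS kinase screening set, with the assay run by Nanosyn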
Dear colleague, please return just the value in %, with no unit written.

[[record]]
smilesdata = "Cc1cc(Cl)cc2c1NC(=O)C2=NNc1ccc(S(N)(=O)=O)cc1"
measuredmetric = "inhibition"
valueobserved = 2.63

[[record]]
smilesdata = "N#Cc1cccc(Nc2nccc(-c3cnn4ncccc34)n2)c1"
measuredmetric = "inhibition"
valueobserved = 18.5

[[record]]
smilesdata = "CN(c1ccc(NC(=O)Nc2ccc(OC(F)(F)F)cc2)cc1)c1ccnc(Nc2cccc(S(N)(=O)=O)c2)n1"
measuredmetric = "inhibition"
valueobserved = 28.6


Per the records, this compound ( `COC(=O)Nc1nc2cc(Oc3ccc(NC(=O)Nc4cccc(Br)c4)cc3)ccc2[nH]1` ) has inhibition equal to 32.8

The compound identified as `NS(=O)(=O)c1ccc(N/N=C2\C(=O)Nc3ccc(Cl)cc32)cc1` registered its inhibition at 16.4

----------
target: RAC-gamma serine/threonine-protein kinase (Homo sapiens) (UniProt Q9Y243); conditions: at 0.1 µM
Sequence (Q9Y243 whole entry): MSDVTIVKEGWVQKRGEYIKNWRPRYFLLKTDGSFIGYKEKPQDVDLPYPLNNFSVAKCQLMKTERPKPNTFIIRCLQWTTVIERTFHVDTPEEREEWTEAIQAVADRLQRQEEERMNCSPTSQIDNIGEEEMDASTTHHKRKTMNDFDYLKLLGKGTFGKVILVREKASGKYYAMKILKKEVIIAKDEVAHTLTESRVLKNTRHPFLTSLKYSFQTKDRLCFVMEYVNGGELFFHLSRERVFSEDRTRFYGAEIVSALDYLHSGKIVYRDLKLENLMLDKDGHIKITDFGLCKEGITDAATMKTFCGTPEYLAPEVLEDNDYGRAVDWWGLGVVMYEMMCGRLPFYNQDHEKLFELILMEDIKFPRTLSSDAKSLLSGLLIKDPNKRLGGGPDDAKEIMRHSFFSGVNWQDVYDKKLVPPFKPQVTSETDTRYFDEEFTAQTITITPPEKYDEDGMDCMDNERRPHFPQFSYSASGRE
Description: GSK_PKIS: AKT3 mean inhibition at 0.1 uM [Nanosyn]
Would you mind labelling by inhibition? At or over 1% is label 1, under is label 0.

Worked set:
[[record]]
smilesdata = "COc1ccc(-c2nn3ncccc3c2-c2ccnc(Nc3cccc(C(F)(F)F)c3)n2)cc1"
classification = "label 0"

[[record]]
smilesdata = "Nc1nccc(C#Cc2cncnc2Nc2ccc(OCc3cccc(F)c3)c(Cl)c2)n1"
classification = "label 1"

[[record]]
smilesdata = "NS(=O)(=O)c1ccc(-c2cc3ccncc3cc2OCc2ccccc2)cc1"
classification = "label 0"

[[record]]
smilesdata = "c1ccc(Cc2nc3ccc(Nc4ncnc5ccccc45)cc3[nH]2)cc1"
classification = "label 1"

[[record]]
smilesdata = "NS(=O)(=O)c1cccc(Nc2cc(-c3ccc(F)cc3)n[nH]2)c1"
classification = "label 1"


Textbook exercise: given the entry `CCn1c(-c2nonc2N)nc2ccc(F)cc21` , state whether its inhibition is greater than or equal to 1%.
label 1

Form field: inhibition at least 1%? Entry: `NC(=O)c1sc(-n2cnc3ccccc32)cc1OCc1ccccc1Br`
label 1

Hi, just wondering whether `COc1cccc(-n2ncc3c(N/N=C/c4ccc(C)cc4)ncnc32)c1` shows inhibition of 1% or higher.
label 0

Would you say `NS(=O)(=O)c1cccc(-c2cc3ccncc3cc2OCc2ccccc2)c1` shows inhibition at minimum 1%?
label 1

Textbook exercise: given the entry `N#Cc1cccc(Nc2nccc(-c3cnn4ncccc34)n2)c1` , state whether its inhibition is greater than or equal to 1%.
label 1

----------
target: MAP kinase-activated protein kinase 3 (Homo sapiens); details: at 0.1 µM
Description: GSK_PKIS: MAPKAPK3 mean inhibition at 0.1 uM [Nanosyn]
Measured inhibition accompanies every entry in the list below.
Write down the numeric answer in % and omit the unit.

Sample answers from the record:
[[record]]
smilesdata = "COc1cc2ncnc(Nc3ccc4c(cnn4Cc4ccccc4)c3)c2cc1OC"
valueobserved = 6.95

[[record]]
smilesdata = "C[C@@H](Oc1cc(-n2cnc3ccc(OC[C@@H](O)CO)cc32)sc1C(N)=O)c1ccccc1Cl"
valueobserved = -0.21

[[record]]
smilesdata = "NS(=O)(=O)c1ccc(Nc2cc(-c3cccc(O)c3)n[nH]2)cc1"
valueobserved = 4.03

[[record]]
smilesdata = "CN(C)CCCn1c(-c2nonc2N)nc2cnccc21"
valueobserved = 4.24

[[record]]
smilesdata = "COC(=O)c1cncc(/C=C/c2c(C)cc(O)cc2C)c1"
valueobserved = 2.97


Consider now this further molecule.
So, `COC(=O)Nc1nc2cc(Oc3ccc(NC(=O)Nc4cccc(Br)c4)cc3)ccc2[nH]1` ? Its inhibition was 4.95

----------
Measured inhibition of individual entries
molecular target: Proto-oncogene tyrosine-protein kinase Src (Homo sapiens) (UniProt P12931); conditions: at 0.1 µM;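 also: values are averaged inhibition of Src, tested against the GSK PKIS kinase inhibitor set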
Sequence (P12931 2-536 limits assumed): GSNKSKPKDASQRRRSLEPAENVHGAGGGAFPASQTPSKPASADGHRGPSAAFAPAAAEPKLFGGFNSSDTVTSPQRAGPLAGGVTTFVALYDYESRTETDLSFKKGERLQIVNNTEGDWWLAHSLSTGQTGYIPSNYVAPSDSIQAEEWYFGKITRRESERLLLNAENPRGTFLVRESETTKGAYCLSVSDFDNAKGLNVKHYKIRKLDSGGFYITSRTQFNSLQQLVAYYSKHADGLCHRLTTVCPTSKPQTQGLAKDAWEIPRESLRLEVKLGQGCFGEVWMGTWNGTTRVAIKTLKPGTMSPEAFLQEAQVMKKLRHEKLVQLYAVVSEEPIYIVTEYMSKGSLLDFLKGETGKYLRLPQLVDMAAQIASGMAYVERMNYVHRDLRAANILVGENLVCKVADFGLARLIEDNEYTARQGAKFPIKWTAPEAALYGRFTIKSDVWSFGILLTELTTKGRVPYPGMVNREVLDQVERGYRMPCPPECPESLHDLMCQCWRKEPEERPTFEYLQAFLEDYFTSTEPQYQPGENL
Field: numeric (%). Do not append units.

[[record]]
smilesdata = "CCS(=O)(=O)c1ccc(OC)c(Nc2nccc(N(C)c3ccc4c(C)n[nH]c4c3)n2)c1"
unitstext = "%"
valueobserved = 42.5


The reported value for `OCc1ccc(-c2nc(-c3ccccn3)c(-c3ccc4c(c3)OCO4)[nH]2)cc1` in terms of inhibition is -0.99

Summary for this compound, `CS(=O)(=O)Nc1cccc(-c2ccc3c(NC(=O)C4CC4)n[nH]c3c2)c1` : inhibition is 1.2

The reported value for `c1ccc(Nc2ncc(-c3ccccc3)o2)cc1` in terms of inhibition is 9.27

Recorded result, `COc1cc2ncnc(Nc3ccc(C)c(O)c3)c2cc1OC` , inhibition: 22.9

Briefly, inhibition measured for `CN(C)C(=O)O[C@H]1CN[C@H](C#Cc2cc3ncnc(Nc4ccc(OCc5cccc(F)c5)c(Cl)c4)c3s2)C1` : 3.86

Lab note: measured inhibition of `C[C@@H](Oc1cc(-n2cnc3ccc(OC[C@@H](O)CO)cc32)sc1C(N)=O)c1ccccc1Cl` was 3.67

Query `N#Cc1cccc(Nc2nccc(-c3cnn4ncccc34)n2)c1` yields inhibition of 14.3

`Oc1cccc(-c2nc(-c3ccccc3)[nH]c2-c2ccncc2)c1` has a reported inhibition of 18.7

Reported inhibition ( `NS(=O)(=O)c1ccc(Nc2cc(-c3cccc(O)c3)n[nH]2)cc1` ) = 3.91

In plain terms, `O=S(=O)(CCOCc1ccc(-c2ccc3ncnc(Nc4ccc(OCc5cccc(F)c5)c(Cl)c4)c3c2)o1)c1ccccc1` has a documented inhibition of 0.66

Notebook: `COC(=O)Nc1nc2cc(Oc3ccc(NC(=O)Nc4cccc(Br)c4)cc3)ccc2[nH]1` , inhibition read as 3.27
